# credit: patent US20080200535A1

Molecular target: S1P1 receptor (Homo sapiens)
Construct: membrane preparation
Sequence (P21453 whole entry): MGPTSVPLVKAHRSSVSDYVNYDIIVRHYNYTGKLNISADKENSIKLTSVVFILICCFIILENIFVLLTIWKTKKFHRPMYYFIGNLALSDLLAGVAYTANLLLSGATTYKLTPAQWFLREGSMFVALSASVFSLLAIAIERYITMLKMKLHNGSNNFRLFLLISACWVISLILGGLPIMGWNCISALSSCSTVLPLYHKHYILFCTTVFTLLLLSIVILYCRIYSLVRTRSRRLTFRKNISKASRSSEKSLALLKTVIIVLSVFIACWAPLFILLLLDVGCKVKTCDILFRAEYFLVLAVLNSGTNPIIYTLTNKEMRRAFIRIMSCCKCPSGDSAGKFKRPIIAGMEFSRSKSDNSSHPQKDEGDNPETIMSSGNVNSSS
Assay: 35S-GTPγS binding assay using membrane preparation of CHO cell stably expressing S1P1 receptor
Conditions: agonist activity
Listed below: EC50 values for each entry.
quantity.kind: EC50 (pM)

                            molecule_smiles                  study_target  display_unit  measured_result
0  CC(C)Oc1ccc(-c2nc(-c3ccc(CNCCC(=O)O)cc3)no2)cc1C(F)(F)F  S1P1 receptor (Homo sapiens)            pM              600
1  Cc1cc(-c2nc(-c3ccc(CNCCC(=O)O)cc3)no2)ccc1-c1ccccc1C(F)(F)F  S1P1 receptor (Homo sapiens)            pM              310
2  O=C(O)[C@H]1CCC[C@H](NCc2ccc(OCc3cc(-c4ccccc4)c(C(F)(F)F)s3)cc2)C1  S1P1 receptor (Homo sapiens)            pM            34000
